TARGET ENTITY: T1, human EphA2 (human, UniProt P29317 25-534, limits assumed)
T1 construct: also called Eph receptor tyrosine kinase A2
T1 sequence (P29317 25-534 limits assumed): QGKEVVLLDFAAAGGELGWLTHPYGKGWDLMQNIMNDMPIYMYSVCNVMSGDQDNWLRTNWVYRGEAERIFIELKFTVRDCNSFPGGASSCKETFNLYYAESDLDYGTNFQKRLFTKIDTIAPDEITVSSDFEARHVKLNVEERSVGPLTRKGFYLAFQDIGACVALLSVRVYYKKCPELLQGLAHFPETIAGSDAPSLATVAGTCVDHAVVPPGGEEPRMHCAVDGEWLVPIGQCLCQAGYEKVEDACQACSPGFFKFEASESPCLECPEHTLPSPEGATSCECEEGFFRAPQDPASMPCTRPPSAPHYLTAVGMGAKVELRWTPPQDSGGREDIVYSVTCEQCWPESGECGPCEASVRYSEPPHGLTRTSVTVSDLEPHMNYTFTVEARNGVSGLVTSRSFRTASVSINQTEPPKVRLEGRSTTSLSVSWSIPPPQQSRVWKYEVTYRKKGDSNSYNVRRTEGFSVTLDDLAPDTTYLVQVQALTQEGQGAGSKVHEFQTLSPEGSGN
MEASUREMENT DESCRIPTION: fluorescence polarisation competition with tracer BCY90, human EphA2, mean of 38
Starred links: 1 amine or outer side, 2 acyl side, 3 side chain; linkers in the order of their positions; H or OH if unused. Positions of bridges follow the written chain, without caps; N, C: chain ends. Non-standard residues stand in square brackets, D forms with d. No end group written: not given here. TATA = O=C(CC[*:1])N1CN(C(=O)CC[*:2])CN(C(=O)CC[*:3])C1; Hyp = O=C(O)[C@@H]1C[C@@H](O)CN1; hArg = N=C(N)NCCCC[C@H](N)C(=O)O
MEASURED PARAMETER: pKi
// field semantics: pKi = negative decimal log of concentration (mol/L)

-- ask Fill in: pKi of A[hArg]DC[Hyp]LVNPLCLHP[dD]W[hArg]C-NH2 (linker 4-11-18 via TATA, Bicyclic peptide cyclised with TATA) [BCY9594] is ___
-- reply 8.84
